- TARGET_DESC: human GPR139 receptor (Homo sapiens, UniProt Q6DWJ6)
- Construct: expressed in transfected cells; host or cells: T-REx-CHO (Thermo Fisher Scientific), doxycycline-induced
- Sequence (Q6DWJ6 whole entry): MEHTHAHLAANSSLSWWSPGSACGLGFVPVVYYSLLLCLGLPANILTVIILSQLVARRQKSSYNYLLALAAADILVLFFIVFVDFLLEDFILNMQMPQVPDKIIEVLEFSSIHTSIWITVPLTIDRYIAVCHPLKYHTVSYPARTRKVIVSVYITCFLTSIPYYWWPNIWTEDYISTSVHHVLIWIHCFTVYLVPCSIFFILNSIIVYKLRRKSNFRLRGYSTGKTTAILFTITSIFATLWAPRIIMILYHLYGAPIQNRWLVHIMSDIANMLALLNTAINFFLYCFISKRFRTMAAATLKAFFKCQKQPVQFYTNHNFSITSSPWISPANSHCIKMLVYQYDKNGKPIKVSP
- PROTOCOL_DETAILS: GPR139 Competition Binding (membrane-based, tritium-labeled ligand)
- ASSAY_CONDITIONS: T-REx-CHO membranes with human GPR139; 6.5 nM tritium-labeled ligand; 11-point curve, 30 μM maximum concentration; read-out: GPR139 Binding Affinity (pKi) (converted)
MEASURED_PROPERTY: Ki (nM)
Answers are plain numbers, in nM.

Some solved cases for reference:
COc1ccc([C@H](C)NC(=O)Cn2ncc3c(c(C)nn3C3CC3)c2=O)cc1F [Example 129]; 724
Cc1ccc([C@H](C)NC(=O)Cn2ncc3c(cnn3C(C)C)c2=O)c(F)c1 [Example 88]; 676
Cc1nn(CC(=O)N[C@@H](C)c2ccc(OC(F)(F)F)cc2)c(=O)c2c1cnn2C(C)(C)C [Example 15]; 57.5
C[C@H](NC(=O)Cn1ncc2c(c(C(F)(F)F)nn2C)c1=O)c1ccc(C(F)(F)F)cc1 [Example 172]; 178
COc1ccc([C@H](C)NC(=O)Cn2ncc3c(c(C)nn3C)c2=O)cc1 [Example 48]; 1910

// each compound listed below needs its Ki
1. Cc1nn(C2CC2)c2c(=O)n(CC(=O)N3CCCC3c3ccc(Cl)cc3)ncc12 (stereo not shown) [Example 85]
2. COc1cc(Cl)ccc1C[C@H](C)NC(=O)Cn1ncc2c(c(C)cn2C2CC2)c1=O [Example 67]
3. Cc1ccc([C@H](C)NC(=O)Cn2nc(C)c3c(cnn3C3CC3)c2=O)cc1 [Example 80]

Response:
[55, 3.89, 1660]

// each compound listed below needs its Ki
1. Cc1nn(C(C)(C)C)c2cnn(CC(=O)N[C@@H](C)c3ccc(C(F)(F)F)cc3)c(=O)c12 [Example 157]
2. Cc1ccc([C@H](C)NC(=O)Cn2nc(C)c3cnn(-c4ccccc4)c3c2=O)cc1 [Example 1]
3. Cc1ccc([C@H](C)NC(=O)Cn2ncc3ccn(C)c3c2=O)c(F)c1 [Example 165]

Response:
1: 234; 2: 55; 3: 70.8

// each compound listed below needs its Ki
1. Cc1nn(CC(=O)N[C@@H](C)c2ccc(C(F)(F)F)cn2)c(=O)c2c1c(C)nn2C1CC1 [Example 101]
2. Cc1ccc([C@H](C)NC(=O)Cn2nc(C)c3c(C)nn(C4CC4)c3c2=O)cc1F [Example 68]

Response:
1: 282; 2: 0.347

* * *

- TARGET_DESC: human GPR139 receptor (Homo sapiens)
- Construct: expressed in transfected cells; host or cells: T-REx-CHO (Thermo Fisher Scientific), doxycycline-induced
- PROTOCOL_DETAILS: Measurement of GPR139 Activation Via Calcium Signaling (FLIPR, T-REx-CHO cells)
- Format: cell-based
- ASSAY_CONDITIONS: T-REx-CHO cells stably expressing human GPR139, 11-point dose response, 10 μM maximum concentration, read-out: GPR139 Potency (pEC50) (converted)
MEASURED_PROPERTY: EC50
Please answer using the number first and the unit second.

Some solved cases for reference:
[2H]C([2H])([2H])c1ccc([C@H](C)NC(=O)Cn2ncc3c(cnn3C(C)C)c2=O)cc1; 53.7 nM
COc1ccc([C@H](C)NC(=O)Cn2nc(C)c3c(c(C)nn3C)c2=O)cc1; 2140 nM
CC(C)n1ncc2c(=O)n(CC(=O)N[C@@H](C)c3ccc(C(F)(F)F)cc3)ncc21; 83.2 nM
Cc1ccc([C@H](C)NC(=O)Cn2ncc3c(c(C)nn3C)c2=O)c(F)c1; 123 nM
Cc1ccc([C@H](C)NC(=O)Cn2ncc3c(cnn3C(C)C)c2=O)c(F)c1; 77.6 nM
Cc1nn(C2CCC2)c2cnn(CC(=O)N[C@@H](C)c3ccc(C(F)(F)F)cc3)c(=O)c12; 87.1 nM
Cc1ccc([C@H](C)NC(=O)Cn2nc(C)c3cnn(C(C)(C)C)c3c2=O)c(F)c1; 200 nM
Cc1nn(CC(=O)N[C@@H](C)c2ccc(C(F)(F)F)cn2)c(=O)c2c1c(C)nn2C(C)C; 347 nM

For the next question, use this compound.
Request: Suppose we examine the compound COc1ccc([C@H](C)NC(=O)Cn2ncc3c(c(C4CC4)nn3C)c2=O)cc1 ; what EC50 value has been reported?
Response: 74.1 nM
